- target or system: hCA IX (Homo sapiens)
- Construct: gene CA9; recombinant, obtained in-house
- protocol text: stopped-flow CO2 hydration
- Format: biochemical
- test conditions: read-out: Ki (nM)^b / hCA IX
quantity name: Ki (nM)

NC(=O)C1CCN(S(N)(=O)=O)CC1 [2p, 1-Sulfamoylpiperidine-4-carboxamide] : 46.2

P = CN1CCC(NS(N)(=O)=O)CC1 [2g, (1-Methylpiperidin-4-yl)sulfamide]
Q = NS(=O)(=O)Nc1cccc2ccccc12 [2u, N-(Naphthalen-1-yl)sulfamide]
Please indicate which has the smaller reported Ki: P , or Q . Give the label of your selection.
Q
(Q: 25.4 nM, P: 63.2 nM)
